Tested on: Plasmodium vivax
Assay: Antimicrobial activity against Plasmodium vivax trophozoites measured within 30 hrs by microscopy
Format: functional, organism-based
# note: exactly 20 nM is not below, so it is label 0; use label 1 for IC50 strictly under it

Answered cases to consult:
Given CCN(CC)CCCC(C)Nc1ccnc2cc(Cl)ccc12 (stereo unspecified) , is recorded IC50 strictly lower than 20 nM?
label 0

Likewise for CCCCN(CCCC)CC(O)c1cc(Cl)cc2c1-c1ccc(Cl)cc1/C2=C/c1ccc(Cl)cc1 (stereo unspecified) ?
label 1

Likewise for `CCN(CC)Cc1cc(Nc2ccnc3cc(Cl)ccc23)ccc1O` ?
label 1

Likewise for OC(c1cc(C(F)(F)F)nc2c(C(F)(F)F)cccc12)C1CCCCN1 (stereo unspecified) ?
label 1

Likewise for C[C@H]1[C@H](OC(=O)CCC(=O)O)O[C@@H]2O[C@@]3(C)CC[C@H]4[C@H](C)CC[C@@H]1[C@@]24OO3 [ARTESUNATE] ?
label 1

New cases:
Given `Clc1ccc2c(N3CCN(CCCN4CCN(c5ccnc6cc(Cl)ccc56)CC4)CC3)ccnc2c1` , is recorded IC50 strictly lower than 20 nM?
label 0
